# System: Wnt5a (protein binding on small-molecule microarray)
# assay-procedure: small molecules binding Wnt5a protein – biophysical, small-molecule microarray, 635/667 nm fluorescence, primary screen (AID 1142);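 further: fluorescence read at 667 nm with signal to noise per printed feature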
# test-conditions: 635 nm fluorescence, higher = more signal
Label 1 (yes) when composite z-score is at or above 0.3; otherwise label 0 (no).

Worked examples follow.
{"molecule": "O=C1[C@H]2C=C(Br)[C@H](C[C@@H]2OCCCCCCO)[C@@]12CO2", "classification": "0 (no)"}
{"molecule": "CC[C@@H]1C=C(C(=O)O)[C@H](c2ccc(C)cc2)N1S(=O)(=O)c1ccc(C)cc1", "classification": "0 (no)"}
{"molecule": "O=C1O[C@H](c2ccccc2)[C@H](c2ccccc2)N2[C@H]1[C@@H](C(=O)NC[C@H](O)c1ccccc1)[C@]1(C(=O)Nc3ccccc31)[C@H]2c1ccc(O)cc1", "classification": "1 (yes)"}
{"molecule": "COCCOC(=O)N1C(=O)[C@@]2(c3cc(C#CC4(O)CCCCCC4)ccc31)[C@H](C(=O)Nc1nc3ccccc3s1)[C@H]1C(=O)O[C@H](c3ccccc3)[C@H](c3ccccc3)N1[C@@H]2c1ccccc1OCCO", "classification": "1 (yes)"}
{"molecule": "O=C1OCCC=C[C@H]2OC34C=CCN(Cn5nnc6ccccc65)C(=O)[C@H]3N(CCO)C(=O)[C@@H]4C12 (some centres undefined)", "classification": "0 (no)"}
{"molecule": "COc1ccc([C@H]2C[C@H]3C(Br)=C[C@@]2(CO)C(=O)[C@]32CO2)cc1", "classification": "0 (no)"}

Then this molecule:
## Input Does C=CC1c2cc(O)c(OC)cc2CCN1Cc1cccc(OC(F)(F)F)c1 (centres undefined) have a reported composite z-score of at least 0.3?
## Output 0 (no)

---

# System: Human papillomavirus type 1a protein E7 (residues 44-93)
# assay-procedure: small molecules binding HPV E7 44-93 – biochemical, small-molecule microarray, residues 44-93, 635 nm fluorescence, primary screen (AID 1108);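 further: E7 fragment applied at 1 µg/mL in TBST for 1 h at 4 C; score combines spot fluorescence with its signal to noise ratio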
# test-conditions: fluorescence 635 nm, higher = more signal
quantity-measured: composite z-score
Answer as a number with no unit attached.

Previously resolved entries follow.
{"compound": "COc1ccc(C(O)C2C=CC3C(=O)N(C)C(=O)C3N2N(c2ccccc2)c2ccccc2)c2ccccc12 (stereo not given)", "composite z-score": -0.452}
{"compound": "Cc1ccc(S[C@]2(C(=O)NCC(C)C)CC(=O)N(Cc3cc(C(F)(F)F)cc(C(F)(F)F)c3)[C@@H]2c2ccc(CO)cc2)cc1", "composite z-score": -0.716}
{"compound": "OCCCC1=CC(C2CC2)N(Cc2cccc(OC(F)(F)F)c2)CC1 (stereo not given)", "composite z-score": -0.928}
{"compound": "CS(=O)(=O)CCOC(=O)C1=CC(CCCO)=CC(c2ccc(CN3CCCC3)cc2)N(Cc2cccc(OC(F)(F)F)c2)C=C1C(=O)OCCS(C)(=O)=O (stereo not given)", "composite z-score": 1.22}

Shift focus to the following entry.
Given item O=C1O[C@H](c2ccccc2)[C@H](c2ccccc2)N2[C@H]1[C@@H](C(=O)N1CCN(c3ncccn3)CC1)[C@]1(C(=O)Nc3ccc(C#CC4=CCCCC4)cc31)[C@H]2c1ccccc1OCCO , the value recorded as its composite z-score is 0.379
